# TARGET_UNDER_TEST: T1, recombinant human FasR (Homo sapiens, UniProt P25445)
# T1 construct: Fas receptor (FasR, CD95), human, recombinant; The FasR of the BLI and SPR experiments; Details are in Supplementary Protocols 8-10; also called recombinant FasR
# METHOD_NOTES: BLI; Octet Red384; recombinant human FasR; 1:1 Langmuir model; at least in duplicate; who was immobilised is not told (Supplementary Protocols 8-10)
# TEST_CONTEXT: both partners purified
ENDPOINT: koff (s⁻¹)
Give the number; s⁻¹ is assumed, so skip it.

A07a IgG (antibody, V domains shown, numbers count on: Kabat numbering; IgG heavy constant region; light constant region; IgG made from the scFv A07a) VH: QLQLQESGPGLVKPSETLSLTCTVPGASISANSYYGVWVRQSPGKGLEWVGSIAYRGNSNSGSTYYNPSLKGRATVSVDTSKNQVSLRLTSVTAADTALYYCARRQLLDDGTGYQWAAFDNWDQGTMVTVSS VL: QSVLTQPPSVSEAPRQTVTISCSGNSFNIGRYPVNWYQQLPGKAPKLLIYSNNLRFSGVSDRFSGSKSGTSASLAIRDLLSEDEADYYCSTWDDTLKGWVFGGGTKVTVL    0.000171

Now let's try a different one.
For the binder Ep6b_B01 scFv (scFv, V domains shown, numbers count on: Kabat numbering; scFv linker, as in m6) VH: QLQLQESGPGLVKPSETLSLTCTVSGASISANSYYGVWVRQSPGKGLEWVGSIAYRGNSNSGSTYYNPSLKSRATVSVDSSKNQVSLRLTSVTAADTALYYCARRQLLDDGTGYQWAAFDVWGQGTMVTVSS VL: QSVLTQPPSVSEAPRQTVTISCSGNSSNIGRYPVNWYQQLPGKAPKLLIYSDNLRFSGVPDRFSGSKSGTTASLAIRDLLSEDEADYYCSTWDDTLEGWVFGGGTKVTVL , what koff is on record?
0.000125
